# assay: qHTS of pediatric cancer cell lines to identify multiple opportunities for drug repurposing: Primary screen for MG 63 (6-TG R) cells (AID 1347105); note: nearly all actives have a fitted effect of over 50% in size
# settings: MG 63 (6-TG R) viability, CellTiter-Glo, 48 h; series mostly up to 46 µM
Records with an inconclusive call do not appear. The source made the active and inactive calls. Calls come from the whole dose curve; as a rule, active = well fitted cell-killing curve with a large enough effect; inconclusive = small, poorly fitted or top-dose-only effect; inactive = no such curve, though single readings can be large or run the other way.
Your reply should match one of these outcome classes. yes (1) for active, no (0) for inactive

Nc1nc(Cl)nc2c1ncn2[C@@H]1O[C@H](CO)[C@@H](O)[C@H]1F; yes (1)
CN1CC(=O)NC1=NC(=O)Nc1cccc(Cl)c1; no (0)
N#CC(c1ccc(Cl)cc1)c1c(Cl)cc(-n2ncc(=O)[nH]c2=O)cc1Cl (stereo not drawn); yes (1)
CN(C)CCN(Cc1ccc(Cl)cc1)c1ccccn1; no (0)
CCCCN(CCCC)CC(O)c1cc(Cl)cc2c1-c1ccc(Cl)cc1C2=Cc1ccc(Cl)cc1 (stereo not drawn); no (0)

Query: Field: outcome | Entry: "COc1ccc(CCC(=O)Nc2nc3ccc(Cl)cc3s2)cc1OC"
Response: no (0)

Query: Field: outcome | Entry: "O=c1cc(-c2ccc(O)c(O)c2)oc2cc(O)cc(O)c12"
Response: no (0)

Query: Field: outcome | Entry: "CC(C)(C)c1nc(-c2cccc(NS(=O)(=O)c3c(F)cccc3F)c2F)c(-c2ccnc(N)n2)s1"
Response: no (0)

Query: Field: outcome | Entry: "CCNC(=O)Nc1ccc(Oc2ncnc(N)c2C=NOC)cc1Cl"
Response: no (0)

Query: Field: outcome | Entry: "N#Cc1c(N(CC(=O)O)CC(=O)O)sc(C(=O)O)c1CC(=O)O"
Response: no (0)

Query: Field: outcome | Entry: CO[C@@H]1C(N(C)C(=O)c2ccccc2)C[C@H]2O[C@]1(C)n1c3ccccc3c3c4c(c5c6ccccc6n2c5c31)C(=O)NC4=O (stereo partly drawn)
Response: yes (1)

Query: Field: outcome | Entry: "CC(C)=CCCC(C)=CCCC(C)=CCCC(C)=CCCC(C)=CCCC(C)=CCCC(C)=CCCC(C)=CCCC(C)=CCO"
Response: no (0)

Query: Field: outcome | Entry: "CN(C)c1ccccc1CN1CCCN(Cc2ccccc2N(C)C)C1c1ccncc1"
Response: no (0)

Query: Field: outcome | Entry: "c1cc(OCCN2CCCCC2)cc(-c2n[nH]c3ccc(-c4ncn[nH]4)cc23)c1"
Response: no (0)

Query: Field: outcome | Entry: C[C@@H]1O[C@@H](O[C@H]2CC[C@@]3(C)[C@H](CC[C@@H]4[C@H]3C[C@@H](O)[C@]3(C)[C@@H](C5=CC(=O)OC5)CC[C@]43O)C2)C[C@H](O)[C@@H]1O[C@H]1C[C@H](O)[C@H](O[C@H]2C[C@H](O)[C@@H](O)[C@@H](C)O2)[C@H](C)O1 (stereo in doubt)
Response: yes (1)

Query: Field: outcome | Entry: "Cc1ccc(NC(=O)c2ccc(CN3CCN(C)CC3)cc2)cc1Nc1nc(-c2cccnc2)cs1"
Response: no (0)

Query: Field: outcome | Entry: O[C@@H](COc1cccc2ncccc12)CN1CCN(C2c3ccccc3[C@@H]3[C@H](c4ccccc42)C3(F)F)CC1 (stereo partly drawn)
Response: yes (1)

Query: Field: outcome | Entry: "O=C(Nc1ccc(OC(F)(F)F)cc1)c1sccc1NCc1ccnc2ccccc12"
Response: no (0)

====

# assay: qHTS of pediatric cancer cell lines to identify multiple opportunities for drug repurposing: Primary screen for OHS-50 cells (AID 1347103); note: nearly all actives have a fitted effect of over 40% in size
# settings: OHS-50 osteosarcoma viability, CellTiter-Glo luminescence, 48 h; series mostly up to 57.3 µM
Inconclusive results are not listed. The source made the active and inactive calls. Calls come from the whole dose curve; as a rule, active = well fitted cell-killing curve with a large enough effect; inconclusive = small, poorly fitted or top-dose-only effect; inactive = no such curve, though single readings can be large or run the other way.
Your reply should match one of these outcome classes. active, inactive

CCCCC(C)(C)[C@H](O)C=C[C@H]1[C@H](O)CC(=O)[C@H]1CC=CCCCC(=O)O; inactive
COc1ccc(-c2cc3nccn3c(Nc3ncccc3C(N)=O)n2)cc1OC; active
Cc1cc(C(C)Nc2ccccc2)c2nc(N3CCOCC3)cc(=O)n2c1 (centres undefined); active

Query: Field: outcome | Entry: "O=C(CO)N1CCC(c2[nH]nc(-c3ccc(Cl)cc3)c2-c2ccncn2)CC1"
Response: inactive

Query: Field: outcome | Entry: "CC=C(C(=CC)c1ccc(O)cc1)c1ccc(O)cc1"
Response: active

Query: Field: outcome | Entry: CCCC1OC2C[C@@H]3[C@H]4CCC5=CC(=O)C=C[C@]5(C)[C@H]4C(O)C[C@]3(C)[C@]2(C(=O)CO)O1 (some centres undefined)
Response: inactive

Query: Field: outcome | Entry: "C[C@H](CCC(=O)O)[C@H]1CC[C@H]2[C@H]3[C@@H](CC[C@]12C)[C@@]1(C)CC[C@@H](O)C[C@H]1C[C@@H]3O"
Response: inactive

Query: Field: outcome | Entry: "COc1ccc2ccc(=O)oc2c1CC=C(C)C"
Response: active

Query: Field: outcome | Entry: CC[C@@H]([C@H](C)O)n1ncn(-c2ccc(N3CCN(c4ccc(OCC5CO[C@@](Cn6cncn6)(c6ccc(F)cc6F)C5)cc4)CC3)cc2)c1=O (some centres undefined)
Response: active

====

# assay: qHTS of pediatric cancer cell lines to identify multiple opportunities for drug repurposing: Primary screen for Saos-2 cells (AID 1347097); note: nearly all actives have a fitted effect of over 40% in size
# settings: Saos-2 viability, CellTiter-Glo ATP luminescence, 48 h; series mostly up to 46 µM
Records with an inconclusive call do not appear. Active and inactive are the calls of the source. Calls come from the whole dose curve; as a rule, active = well fitted cell-killing curve with a large enough effect; inconclusive = small, poorly fitted or top-dose-only effect; inactive = no such curve, though single readings can be large or run the other way.
Your reply should match one of these outcome classes. active, inactive

CC(C)=CCCC(C)=CCCC(C)=CCCC(C)=CCCC(C)=CCCC(C)=CCCC(C)=CCCC(C)=CCCC(C)=CCO; inactive
Cc1cccc(-c2[nH]c(C(C)(C)C)nc2-c2ccc3c(c2)OCO3)n1; active
C[C@@]1(c2cc(-c3cncnc3)c(F)cc2F)CCSC(N)=N1; active

Query: Field: outcome | Entry: "CN[C@@H](C)[C@H]1[C@H](O)C[C@@]2(C)[C@@H]3CC[C@H]4C(C)(C)[C@@H](NC)CC[C@@]45C[C@@]35CC[C@]12C"
Response: inactive

====

# assay: Quantitative High-Throughput drug screen in 47 multiple myeloma cell lines against the NCATS MIPE library collection: NCIH929_DSMZ cell viability assay (AID 1918978); note: nearly all actives have a fitted effect of over 35% in size
# settings: NCI-H929 myeloma viability, CellTiter-Glo ATP, 48 h; series mostly up to 45.8 µM
Records with an inconclusive call do not appear. Calls of active or inactive are those of the source. The call rests on the fitted dose curve; in most records, active means well fitted cell-killing curve with a large enough effect; inconclusive means small, poorly fitted or top-dose-only effect; inactive means no such curve, though single readings can be large or run the other way.
Your reply should match one of these outcome classes. yes (active), no (inactive)

Below are worked cases with known answers.
CCc1cccc(CC)c1NC(=O)N1Cc2[nH]nc(NC(=O)c3ccc(N4CCN(C)CC4)cc3)c2C1; yes
C=C1c2cccc(O)c2C(O)=C2C(=O)[C@@]3(O)C(O)=C(C(N)=O)C(=O)[C@@H](N(C)C)[C@@H]3[C@@H](O)[C@H]12; no
OC[C@H]1O[C@@H](O[C@H]2[C@@H](O)[C@@](O)(CO)O[C@@H]2CO)[C@H](O)[C@@H](O)[C@@H]1O; no
N#CC(=C1Nc2ccccc2S1)c1ccnc(OCc2ccc(CN3CCOCC3)cc2)n1; yes
Fc1ccc(C(c2ccc(F)cc2)N2CCN(CC=Cc3ccccc3)CC2)cc1; yes
CCNC(=O)CCCC=CC[C@@H]1[C@H](C=CC(O)CCc2ccccc2)[C@@H](O)C[C@@H]1O (stereo partly drawn); no
Nc1ncnc2c1c(-c1cccc(OCc3ccccc3)c1)cn2C1CC(CN2CCC2)C1 (stereo not drawn); yes

Then this compound:
Query: Field: outcome | Entry: "C[C@H](CCC(=O)O)[C@H]1CC[C@H]2[C@H]3[C@@H](CC[C@]12C)[C@@]1(C)CC[C@@H](O)C[C@H]1C[C@@H]3O"
Response: no

====

# Test system: Zika virus NS2B-NS3 protease (unlinked complex)
# assay: Confirmatory screen GU AMC qHTS for Zika virus inhibitors (AID 1347153); note: nearly all actives have a fitted effect of over 70% in size
# settings: Recombinant NS2B-NS3 protease, AMC substrate fluorescence; series mostly up to 57.1 µM
Inconclusive results are not listed. The source made the active and inactive calls. Calls come from the whole dose curve; as a rule, active = well fitted inhibition curve with a large enough effect; inconclusive = small, poorly fitted or top-dose-only effect; inactive = flat fitted curve, though single readings scatter.
Your reply should match one of these outcome classes. yes for active, no for inactive

Below are worked cases with known answers.
O=C(Nc1cccc2c(=O)cc(-c3nn[nH]n3)oc12)c1ccc(OCCCCc2ccccc2)cc1; yes
CCCCC[C@H](O)C=C[C@H]1[C@H](O)CC(=O)[C@H]1CCCCCCC(=O)O; no
COc1cc(Cl)cn2c(-c3cccc(NC4CNC4)n3)cnc12; no

Query: Field: outcome | Entry: "COc1cc(Nc2nc3ccccc3nc2NS(=O)(=O)c2ccc(NC(=O)c3ccc(C)c(OC)c3)cc2)cc(OC)c1"
Response: yes

Query: Field: outcome | Entry: "C[C@H]1COC2=C1C(=O)C(=O)c1c2ccc2c1CCCC2(C)C"
Response: yes

Query: Field: outcome | Entry: "O=C(O)Cc1cccc(OCCCN(Cc2cccc(C(F)(F)F)c2Cl)CC(c2ccccc2)c2ccccc2)c1"
Response: yes

The reported measurements were obtained from PubChem BioAssay (NCATS).
